assayProcedure: Partition coefficient (logP)
Assay type: physicochemical
conditionsUsed: octanol/water
# cutoff 3 applies to logP; >= gives MET, < gives NOT MET

CCCCNCCCCCCN(CCCC)/[N+]([O-])=N/O MET
CCCCCNCCCCCCN(CCCCC)/[N+]([O-])=N/O MET
CNCCCCCCN(C)/[N+]([O-])=N/O NOT MET
CCCCCCNCCCCCCN(CCCCCC)/[N+]([O-])=N/O MET

We now examine a further compound.
Req: Could you verify whether the entry CCNCCCCCCN(CC)/[N+]([O-])=N/O shows logP of no less than 3?
Resp: NOT MET

====

assayProcedure: Apparent half life period in PBS buffer
Format: ADME
Binary call on half-life with cut-off 5 min: strictly below means Met, and equality or higher means Not met.

Solved cases below.
CCCCCNCCCCCCN(CCCCC)/[N+]([O-])=N/O Met
CNCCCCCCN(C)/[N+]([O-])=N/O Met

Req: # TODO verify half-life < 5 min strictly for this compound: CCNCCCCCCN(CC)/[N+]([O-])=N/O
Resp: Not met

Req: # TODO verify half-life < 5 min strictly for this compound: CCCNCCCCCCN(CCC)/[N+]([O-])=N/O
Resp: Not met
